Tested on: PC-3
Test method notes: NCI tumour cell line growth inhibition, 48 h
The source made the active and inactive calls. No stated cut-off is given here; in the data, active = GI50 up to about 1.1 µM and inactive = higher.
Reported metric: GI50

Given the entry "CC[C@@H]1ON(C)[C@H]2CN(C)C(=O)[C@@H]12" , report its measured GI50.
> 100 µM (inactive)

What value of GI50 has been reported for the following compound? "CC(C)/C(Cl)=N\OC(NC(=O)P(=O)(c1ccccc1)c1ccccc1)(C(F)(F)F)C(F)(F)F"
12.6 µM (inactive)

Report GI50 for CCCCCCCCCCCCC(=O)NCC(=O)NC(Cc1ccccc1)C(=O)Oc1ccc([N+](=O)[O-])cc1 (stereo not given) please.
> 100 µM (inactive)

Quick one: GI50 for "Cc1ccc(/C=C/C(=O)c2cc(CN(C)C)c(O)c(CN(C)C)c2)cc1" ?
13.5 µM (inactive)

// returns reported GI50 for input "CCc1cc(Cc2cc(CC)c(NC(=O)C(=O)CC(=O)c3sc(-c4cccnc4)nc3C)c(CC)c2)cc(CC)c1NC(=O)C(=O)CC(=O)c1sc(-c2cccnc2)nc1C"
> 100 µM (inactive)

Consider the compound shown here: "C(=C\C(SCc1ccccc1)SCc1ccccc1)/c1ccccc1" What is its recorded GI50?
> 10 µM (inactive)

What value of GI50 has been recorded for this entry: "Nc1nc(Cl)c(N)c(NCC2(CO)CCCC2)n1"
> 100 µM (inactive)

Would you mind telling me what GI50 value was observed for COC(=O)C1CCC(=O)N1C(c1ccc(OC)cc1)c1ccc2c(c1)OCO2 (stereo not given) ?
45.3 µM (inactive)

What value of GI50 has been recorded for this entry: BrC(Br)=C1C(=C(Br)Br)C(Br)C1Br (stereo not given)
1.62 µM (inactive)

Consider the compound shown here: COc1cc(OC2OC(CO)C(O)C(O)C2O)c2c(c1)O[C@@H]1[C@H](O)Oc3cc(OC)c(OC)cc3[C@]1(O)C2=O (stereo not given in full) What is its recorded GI50?
> 25 µM (inactive)

Any idea what its GI50 is? The compound is CC(Oc1ccccc1Cl)C(=O)NN1C(=O)CSC1c1ccccc1 (stereo not given)
> 100 µM (inactive)

I am curious: what GI50 value has been reported for "S=C1C=C(c2ccccc2)Sc2ccccc2N1" ?
> 100 µM (inactive)

Which GI50 reading was recorded for the compound "[N-]=[N+]=Nc1nc2ccccc2c(N=[N+]=[N-])c1Cl" ?
> 100 µM (inactive)

Fill blank: measured GI50 of the compound O=C(CC(O)c1cccnc1)CC(O)c1cccnc1 (stereo not given) is ____.
15.8 µM (inactive)

Quick one: GI50 for CC(=O)C1=C(C)N(c2ccc(C)cc2)C2(O)C3=C(C(=O)c4ccccc4C3=O)C(O)=CC12Cl (stereo not given) ?
8.85 µM (inactive)

====

Answer each item with its documented GI50.
System: CCRF-CEM
Test method notes: NCI tumour cell line growth inhibition, 48 h
Calls of active or inactive are those of the source. No stated cut-off is given here; in the data, active = GI50 up to about 1.1 µM and inactive = higher.

What value of GI50 has been recorded for this entry: c1ccc(N2CCN(CCCN3CCc4c([nH]c5ccccc45)C3c3cccnc3)CC2)cc1 (stereo unspecified)
88.3 µM (inactive)

What GI50 value was documented for this molecule, "CN(CCCN=C=S)CCCN1c2ccccc2CCc2ccccc21" ?
1.85 µM (inactive)

Given the molecule CC(C)=CCC/C(C)=C/C=C/C(C)=C/C=C/C(C)=C/C=C/C=C(C)/C=C/C=C(C)/C=C/[C@H]1C(C(C)(C)O)CC[C@]1(C)O (stereo partly specified) , what is its reported GI50?
15.1 µM (inactive)

Name the reported GI50 value associated with the molecule "CC(C)/C(Cl)=N\OC(=O)Nc1ccc(C#N)cc1"
1.05 µM (active)

Value lookup for GI50; key = "Cn1c(=O)nc2n(-c3cc(Cl)ccc3Cl)c3ccccc3nc-2c1=O"
4.02 µM (inactive)

# GI50 lookup, item "COc1cc2c(cc1OC)c1c(OC)c(OC)cc3c1c1c2sc(=S)n1CC3"
24.5 µM (inactive)

What does the data say about its GI50? Entry: "CC(C)[C@H]1NC(=O)[C@H]2N=C(S[C@H]2C)[C@@H]2CCCN2C(=O)[C@H](Cc2ccccc2)NC(=O)[C@@H]2CSC(=N2)[C@@H](Cc2ccccc2)NC(=O)[C@@H]2CSC1=N2"
12.3 µM (inactive)

What value of GI50 has been reported for the following molecule? "COc1ccc2c(c1)c(=Cc1ccc(N(C)C)cc1)c1cc(-c3ccccc3)[n+](C)n12"
0.269 µM (active)

Can you look up the measured GI50 of CCCN(CCCCC(NC(C)=O)C(=O)NCc1ccccc1)C(=O)N(CCCl)N=O (stereo unspecified) for me?
54.6 µM (inactive)

Can you share its GI50? I mean this molecule: "Cc1ccc(-c2cc(=O)c(=O)[nH][nH]2)cc1"
> 100 µM (inactive)

Fill blank: measured GI50 of the molecule COc1ccc(C2C(Cl)C(=O)N2NC(=O)c2ccc(NC(C)=O)cc2)cc1OC (stereo unspecified) is ____.
> 100 µM (inactive)

Could you tell me which GI50 is on file for "O=NNc1cnc(O)nc1O" ?
> 100 µM (inactive)

// GI50 lookup, key: "CC(=O)O[C@H]1C(=O)[C@@]2(C)[C@H]([C@H](OC(=O)c3ccccc3)[C@]3(O)C[C@H](OC(=O)[C@H](O)[C@@H](NC(=O)c4cccc(N=[N+]=[N-])c4)c4ccccc4)C(C)=C1C3(C)C)[C@]1(OC(C)=O)CO[C@@H]1C[C@@H]2O"
0.00331 µM (active)

Which GI50 is listed for O=C1CC(C(COCc2ccccc2)OCc2ccccc2)CC(=O)N1 (stereo unspecified) ?
> 100 µM (inactive)

Look up GI50: CC(C)(C)[Si](C)(C)O[C@@H](C(=O)OC1C=CCCC1)[C@@H](NC(=O)c1ccccc1)c1ccccc1 (stereo partly specified)
12.1 µM (inactive)

Consider the molecule shown here: "O=S(=O)(Cc1ccccc1)SCc1ccccc1" What is its recorded GI50?
3.24 µM (inactive)

====

System: LOX IMVI
Test method notes: NCI tumour cell line growth inhibition, 48 h
Calls of active or inactive are those of the source. Rule as the data show it: active = GI50 up to about 1.1 µM and inactive = higher.
Classes to choose from: active, inactive

Would you mind telling me which call this test gave O=C(COc1ccc(OCC(=O)NNC2=NC(c3cc(F)c(Cl)cc3Cl)CS2)c(Cl)c1)NNC1=NC(c2cc(F)c(Cl)cc2Cl)CS1 (centres undefined) ?
active

Which outcome did this test record for the compound "COC(=O)/C(C#N)=C(\N)c1c(C)c2ccccc2oc1=N" ?
inactive

Hi team, can someone confirm the assay call for "O=S1(=O)OCCOS(=O)(=O)C1S(=O)(=O)c1ccc2ccccc2c1" ?
inactive

Dear colleague, could you share the recorded outcome for "Cc1ccc(-c2nc(N/N=C/c3ccc(O)cc3)c3ccccc3n2)cc1" when you have a moment?
inactive

====

Test system: SW-620
Test method notes: NCI tumour cell line growth inhibition, 48 h
Activity calls are given as the source filed them. Cut-off read from the data, not from the text of the source: active = GI50 up to about 1.1 µM and inactive = higher.
Reported metric: GI50

Suppose we examine the compound "CCOc1cccc2[s+]snc12" ; what GI50 value has been reported?
> 100 µM (inactive)

Query (compound): COc1ccc(C2C(Cl)C(=O)N2NC(=O)c2ccc(NC(C)=O)cc2)cc1OC (stereo not given) ; field requested: GI50
> 100 µM (inactive)

Quick one: GI50 for "C/C(O[Si](C(C)C)(C(C)C)C(C)C)=C(\C)C(=O)N(C)c1ccccc1Cl" ?
> 100 µM (inactive)

Please report the recorded GI50 for "CNC(=O)CN(CC(=O)O)C(=O)NC" .
> 100 µM (inactive)

Tell me the measured GI50 of "CC(C)(C)OC(=O)N1CCC(NC(=O)NC2CCN(C(=O)OC(C)(C)C)CC2)CC1" , please.
> 100 µM (inactive)

I'd like to know its GI50. The compound in question is "CC/C=C\C/C=C\C/C=C\CCCCCCCC(=O)OCC"
> 100 µM (inactive)

Tell me the measured GI50 of COC(=O)C1=C(C(=O)OC)C2(/N=C(\Nc3ccccc3)c3ccccc3)N(c3ccc(OC)cc3)CC(c3ccccc3)N2O1 (stereo not given) , please.
> 100 µM (inactive)

Form field: reported GI50 of "C[C@@]12CCCc3coc(c31)C(=O)c1cc3c(cc12)C(=O)C=CC3=O"
5.08 µM (inactive)

Give its GI50 value. Item: CC(=O)OCC1OC(NC(=S)Nn2c(=O)[nH]c3ccccc3c2=O)C(OC(C)=O)C(OC(C)=O)C1OC(C)=O (stereo not given)
> 100 µM (inactive)

Would you kindly share the measured GI50 for "O=C(O/C(=C(/N=N/c1ccccc1)c1ccccc1)c1ccccc1)c1ccccc1" ?
> 100 µM (inactive)

# get_value(readout='GI50', item= Clc1ccc(Cc2nc3cc(Cl)c(Cl)cc3n2CC2CCCN3CCCCC23)cc1Cl (stereo not given) )
1.48 µM (inactive)

Recorded GI50 of "N#CCN1CCOCCOCCN(CC#N)CCOCCOCC1" , please.
> 100 µM (inactive)

Any idea what GI50 was measured for CC1=C(C)CC2C(=O)N(c3cc(C(C)(C)C)ccc3C(C)(C)C)C(=O)C2C1 (stereo not given) ?
> 100 µM (inactive)

Quick one: GI50 for CC1CNC(c2cccc(OCc3ccc(COc4cccc(C5=NC(C)CN5)c4)cc3)c2)=N1 (stereo not given) ?
42.6 µM (inactive)

I am curious: what GI50 value has been reported for "O=C1CC[C@@]2(O)[C@H]3Cc4ccc(-c5cccc(O)c5)c5c4[C@@]2(CCN3CC2CC2)[C@H]1O5" ?
> 35.1 µM (inactive)
